B1: Pistol ribozyme (parent)
chain: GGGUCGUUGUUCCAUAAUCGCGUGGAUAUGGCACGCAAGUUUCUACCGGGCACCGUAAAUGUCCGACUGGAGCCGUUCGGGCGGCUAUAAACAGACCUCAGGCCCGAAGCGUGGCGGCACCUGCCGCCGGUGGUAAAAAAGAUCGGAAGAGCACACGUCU

- Variants of: B1
- experiment.notes: aptazyme ON/OFF ratio, guanine; higher = stronger switching; co-transcriptional cleavage with and without guanine
parameter.measured: aptazyme ON/OFF ratio

- U7A U8A G9C U10G U11G C12U C13G: 1.15
- U7A U8G U11G C12U: 1.29
- U7G U8C U10C C12A C13U: 1.24
- U7G U8G G9U U10C U11A C12A C13G: 1.24
- U7G U8A G9C U11C C12A C13A: 1.04
- U7A U10C C12A C13U: 1.21
- U7G U11C C12A C13G: 1.1
- U7C U8A G9C U10G U11G C13A: 1.13
- U7C U10A U11G C12A C13U: 1.17
- U7G U8G U10A C13A: 1.34
- U7C U8A U10A U11G: 1.22
- U8C G9U U10C U11C C12A C13U: 1.07
- U7A U8G G9A C12G C13A: 1.19
- U7C U8A G9A U10C C13G: 1.05
- U7G U8G G9A U10C U11A C12G C13U: 1.17
- U7G G9C U11A C12U C13G: 1.33
- U7C U8C G9C U11A C12G C13U: 1.03
- U7G U8A G9C C12U C13A: 1.06
- U7A U8C G9A C12A C13A: 1.18
- U7C U8A G9C U10G U11G C12A: 1.23
- U7C U8C G9C U11G C12U C13U: 1.1
- U7G U8G U10C U11A C12G C13U: 1.27

Value source: the RNAGym collection of RNA variant scans (doi:10.1021/acssynbio.7b00057)
